protocolNotes: NCI Yeast Anticancer Drug Screen. Data for the bub3 strain (AID 167)
conditionDetails: S. cerevisiae bub3 mutant strain, at 50.0 µM, active compounds read high
Method: Growth inhibition of yeast strains with defined genetic alterations is measured as a screen for potential anti-cancer activity. Selected strains with alterations in DNA damage repair or cell cycle control were exposed to compounds and growth inhibition was measured relative to vehicle treated controls. The strain used in this assay is bub3
Compounds without any hit were thinned out: in the full panel of roughly 79,000, 15% have a hit.
property: growth inhibition (%)
Numbers only; they are read as %.

Please review the following examples before continuing.
| compound | unitAbbreviation | growth inhibition |
| --- | --- | --- |
| N/C(=N\N=C\c1cc(I)cc(I)c1O)NO | % | 96.7 |
| O=C1C=CC(=O)C(c2ccccc2)=C1 | % | 99.5 |
| CCN(CC)C(C)(C)C(=O)/C=C/c1ccc(Cl)c(Cl)c1 | % | 96 |

Param item = COc1cc(/C=C/C2=C(C)C(=O)CC(c3cc(OC)c(OC)c(OC)c3)C2C)cc(OC)c1OC (stereo unspecified) ; retrieve measured growth inhibition.
2.1

Would you kindly share the measured growth inhibition for COC1CC2CCC(C)[C@](O)(O2)C(=O)C(=O)N2CCCCC2C(=O)OC(C(C)CC2CCC(O)C(OC)C2)CC(=O)C(C)C=C(C)C(OC(=O)CCCN2CCCC2)C(OC)C(=O)C(C)CC(C)/C=C/C=C/C=C\1C (stereo partly specified) ?
92

Find the recorded growth inhibition belonging to S=C(Nc1ccc(Br)c(Cl)c1)SCc1ccc2c(c1)OCO2 and report it.
88.2
